assay: Toxicity in BALB/c nude mouse administered via ip for every 3 days of four injections; conditions: in vivo
QUANTITY_MEASURED: MTD at 72 h (mg/kg)

compound="COc1cccc2c1C(=O)c1c(O)c3c(c(O)c1C2=O)C[C@@](O)(C(=O)CO)C[C@@H]3O[C@H]1C[C@H](N)[C@H](O)[C@H](C)O1.Cl [DOXORUBICIN HYDROCHLORIDE]" quantity_measured="MTD at 72 h" unit_spec=mg/kg recorded_number=4
